Measured relative affinity of individual entries
Target: T1, HLA-DR3 (HLA-DRB1*03:01) (human)
T1 construct: mature; purified from homozygous EBV-transformed lymphoblastoid cells with antibody L243
Experiment: competition ELISA vs biotin-MT 2-16
No end group written: not given here.
Quantity Measured: relative affinity

{"columns": ["Binder", "Assay Value"],
 "data": [
  ["SEYVKDIYAYLRQLE-NH2 [CCNB1 168-182]", 97],
  ["ETMYMTVSIIDRFMQ-NH2 [CCNB1 221-235]", 0.5],
  ["FRLLQETMYMTVSII-NH2 [CCNB1 216-230]", 1],
  ["LQLVGVTAMFIASKY-NH2 [CCNB1 244-258]", 9],
  ["KKMLQLVGVTAMFIA-NH2 [CCNB1 241-255]", 15],
  ["TAMFIASKYEEMYPP-NH2 [CCNB1 250-264]", 4],
  ["MTVSIIDRFMQNNCV-NH2 [CCNB1 225-239]", 1],
  ["PTLQHYLSYTEESLL-NH2 [CCNB1 363-377]", 1],
  ["GDFAFVTDNTYTKHQ-NH2 [CCNB1 267-281]", 0.2],
  ["GNMRAILIDWLVQVQ-NH2 [CCNB1 199-213]", 1],
  ["RAILIDWLVQVQMKF-NH2 [CCNB1 202-216]", 1],
  ["VQMKFRLLQETMYMT-NH2 [CCNB1 212-226]", 1],
  ["DWLVQVQMKFRLLQE-NH2 [CCNB1 207-221]", 0.5]
]}
